Values were extracted from patent US20150299143A1.

# tgt: β 5i (chymotrypsin-like activity) (Homo sapiens, UniProt P20618+P28062)
# Construct: protease activity associated with the proteasome complex in cultured cells; endogenous in cells
# measurement description: Cell-Based Proteasome subunit activity/selectivity assay, β5i, substrate (ANW)2Rh110
# experimental parameters: Ramos cells; substrate (ANW)2Rh110 (β5i); highest concentration tested 20 μM; read-out: Ic50:ramos:ac-(anw)2-r110
pIC50: −log10 of the molar value.
experimental readout: pIC50

- COc1ccc(C(C#N)NC(=O)c2cn(CCNC(=O)c3ccc(OC)c(OC)c3OC)nn2)cn1 (stereo not drawn) [Example 65]: 6.02
- COc1ccc(C(=O)NCCn2cc(C(=O)NC(C#N)c3ccc(OC(F)(F)F)cc3)nn2)c(OC)c1OC (stereo not drawn) [Example 10]: 6.05
- CCc1ccc(CNC(=O)c2cn(CCNC(=O)c3ccc(OC)c(OC)c3OC)nn2)cc1 [Example 7]: 5.93
- CCc1ccc(C(C#N)NC(=O)c2cn(CCNC(=O)c3cncc(Br)c3OC)nn2)cc1 (stereo not drawn) [Example 30]: 5.99
- COc1ccc(C(=O)NCCn2cc(C(=O)NCc3ccc(SC)cc3)nn2)c(OC)c1OC [Example 6]: 6.04
- CCc1ccc(C(C#N)NC(=O)c2cn(CCNC(=O)c3cccc(OC)c3OC)nn2)cc1 (stereo not drawn) [Example 16]: 5.95
